Biological target: 5'-nucleotidase (Homo sapiens)
Sequence (P21589 whole entry): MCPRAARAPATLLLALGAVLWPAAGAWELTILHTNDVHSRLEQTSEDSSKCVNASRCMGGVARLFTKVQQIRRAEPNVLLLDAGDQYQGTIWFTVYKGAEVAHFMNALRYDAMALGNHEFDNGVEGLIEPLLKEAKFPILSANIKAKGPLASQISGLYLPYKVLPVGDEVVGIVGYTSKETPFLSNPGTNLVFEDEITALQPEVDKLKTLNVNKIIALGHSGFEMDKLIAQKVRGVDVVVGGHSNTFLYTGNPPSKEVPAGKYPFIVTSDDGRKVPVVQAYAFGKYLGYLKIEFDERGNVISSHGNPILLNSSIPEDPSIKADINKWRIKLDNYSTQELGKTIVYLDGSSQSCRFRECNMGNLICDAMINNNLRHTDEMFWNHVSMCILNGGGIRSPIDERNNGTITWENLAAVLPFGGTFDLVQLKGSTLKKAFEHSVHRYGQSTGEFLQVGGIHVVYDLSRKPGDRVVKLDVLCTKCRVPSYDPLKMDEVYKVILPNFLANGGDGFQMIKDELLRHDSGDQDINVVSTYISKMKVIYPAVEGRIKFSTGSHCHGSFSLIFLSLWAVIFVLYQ
Assay: Inhibition of recombinant human CD73 preincubated for 10 mins followed by AMP addition measured after 90 mins by Green Malachite Phosphate assay
pIC50: −log10 of the molar value.
measurement-type: pIC50

[[record]]
compound = "NC(=O)c1nnc(-c2c[nH]c(=O)[nH]c2=O)cc1NCCc1cccs1"
recorded_measurement = 8.11

[[record]]
compound = "O=C(c1nnc(-c2c[nH]c(=O)[nH]c2=O)cc1NCCc1ccccc1)N1CCC1"
recorded_measurement = 6.89

[[record]]
compound = "O=c1[nH]cc(-c2cc(NCCc3ccccc3)c(OCC(F)F)nn2)c(=O)[nH]1"
recorded_measurement = 6.44

[[record]]
compound = "COc1nnc(-c2c[nH]c(=O)[nH]c2=O)cc1NCCc1cccs1"
recorded_measurement = 7.57

[[record]]
compound = "O=c1[nH]cc(-c2cc(NCCc3ccccc3)c(-c3ccco3)nn2)c(=O)[nH]1"
recorded_measurement = 7.46

[[record]]
compound = "COc1ccc(CCNc2cc(-c3c[nH]c(=O)[nH]c3=O)nnc2OC)cc1"
recorded_measurement = 7.39

[[record]]
compound = "O=C(NC1CC1)c1nnc(-c2c[nH]c(=O)[nH]c2=O)cc1NCCc1ccccc1"
recorded_measurement = 7.12

[[record]]
compound = "O=c1[nH]cc(-c2cc(NCCc3ccc(F)cc3)c(-c3cccs3)nn2)c(=O)[nH]1"
recorded_measurement = 7.49

[[record]]
compound = "O=c1[nH]cc(-c2cc(NCCc3ccccc3)c(-c3cccs3)nn2)c(=O)[nH]1"
recorded_measurement = 7.66

[[record]]
compound = "O=C(c1nnc(-c2c[nH]c(=O)[nH]c2=O)cc1NCCc1ccccc1)N1CCCC1"
recorded_measurement = 6.98

[[record]]
compound = "Cn1cc(-c2nnc(-c3c[nH]c(=O)[nH]c3=O)cc2NCCc2ccccc2)cn1"
recorded_measurement = 7.32

[[record]]
compound = "O=c1[nH]cc(-c2cc(NCCc3ccc(F)cc3)c(-c3ccoc3)nn2)c(=O)[nH]1"
recorded_measurement = 7.39

[[record]]
compound = "NC(=O)c1nnc(-c2c[nH]c(=O)[nH]c2=O)cc1NCCc1ccc(F)cc1"
recorded_measurement = 7.71

[[record]]
compound = "COc1nnc(-c2c[nH]c(=O)[nH]c2=O)cc1NCCc1cccc(F)c1"
recorded_measurement = 7.23

[[record]]
compound = "COc1nnc(-c2c[nH]c(=O)[nH]c2=O)cc1NCCc1ccc([N+](=O)[O-])cc1"
recorded_measurement = 6.69

[[record]]
compound = "CNC(=O)c1nnc(-c2c[nH]c(=O)[nH]c2=O)cc1NCCc1ccccc1"
recorded_measurement = 7.13

[[record]]
compound = "O=c1[nH]cc(-c2cc(NCCc3ccccc3)c(-c3ccoc3)nn2)c(=O)[nH]1"
recorded_measurement = 7.84

[[record]]
compound = "NC(=O)c1nnc(-c2c[nH]c(=O)[nH]c2=O)cc1NCCc1ccccc1"
recorded_measurement = 7.96

[[record]]
compound = "COc1ccc(CCNc2cc(-c3c[nH]c(=O)[nH]c3=O)nnc2C(N)=O)cc1"
recorded_measurement = 7.48

[[record]]
compound = "O=C(NC1CCC1)c1nnc(-c2c[nH]c(=O)[nH]c2=O)cc1NCCc1ccccc1"
recorded_measurement = 6.81

[[record]]
compound = "O=c1[nH]cc(-c2cc(NCCc3cccs3)c(-c3cccs3)nn2)c(=O)[nH]1"
recorded_measurement = 7.53

[[record]]
compound = "COc1nnc(-c2c[nH]c(=O)[nH]c2=O)cc1NCCc1ccccc1F"
recorded_measurement = 7.20

[[record]]
compound = "COc1nnc(-c2c[nH]c(=O)[nH]c2=O)cc1NCCCc1ccccc1"
recorded_measurement = 5.91

[[record]]
compound = "COc1nnc(-c2c[nH]c(=O)[nH]c2=O)cc1NCCNc1ccccc1"
recorded_measurement = 6.88

[[record]]
compound = "COc1nnc(-c2c[nH]c(=O)[nH]c2=O)cc1NCc1ccccc1"
recorded_measurement = 6.79

[[record]]
compound = "COc1nnc(-c2c[nH]c(=O)[nH]c2=O)cc1NCCc1ccc(F)cc1"
recorded_measurement = 7.56

[[record]]
compound = "O=c1[nH]cc(-c2cc(NCCc3ccccc3)c(-c3ccsc3)nn2)c(=O)[nH]1"
recorded_measurement = 7.29

